conditions: Caco-2, Papp (BA), replicate 2
Numbered stars: 1 amine (or outer) side, 2 acyl side, 3 side chain; on linkers, the order of the positions; unused ones are H or OH. Square brackets hold non-standard residues; d marks the D form. Peptide text beside a SMILES is read from it. X2 = CCCCCCOC(=O)N=C(N)NCCC[C@H](N[*:1])C(=O)[*:2]; dNMeV = CN[C@@H](C(=O)O)C(C)C; NMeA = CN[C@@H](C)C(=O)O
The reader will find reported Papp B→A values listed item by item below.
Give a bare numeral; the unit ×10⁻⁶ cm/s is implied.

compound="CCCCCCOC(=O)N=C(N)NCCC[C@@H]1NC(=O)[C@@H](C(C)C)N(C)C(=O)[C@H](C)N(C)C(=O)[C@H](C)NC(=O)[C@H](CC(=O)OC)NC(=O)CNC1=O [#29P-Hoc] (cyclo(A[NMeA][dNMeV][X2]GD(OMe)))" measured_endpoint="Papp B→A" assay_result=0.2

Read the next record carefully.
Data request: # return recorded Papp B→A for entry CCCCCCOC(=O)N=C(NCCC[C@@H]1NC(=O)[C@H](C(C)C)N(C)C(=O)[C@@H](Cc2ccccc2)NC(=O)[C@H](CC(=O)OC)NC(=O)CNC1=O)NC(=O)OCCCCCC
Data returned: 0.3
